- System: HEK293FT dCK*-only
- protocol summary: relative growth in counter assay (no AraC = 100%, AraC + DMSO = 0%); higher = more growth rescue independent of IKZF1
- experimental setup: compound concentration: 5 uM; AraC concentration: 0.3 uM; overnight pretreatment + 4 days AraC
Over roughly 1,000 compounds, “relative growth in counter assay (no AraC = 100%, AraC + DMSO = 0%)” has its median near -1.1; the highest 2% begin near 20. Shown is part of a subset that was picked to be rich in the highest values.
property label: relative growth in counter assay
Answer format: value, then unit.

Completed entries (count: 3):
>>> meas_value("O=C(C1CNCCO1)N1CCC(c2cccc(Nc3ncc(-c4ccccc4)s3)n2)CC1 (stereo unspecified)")
"1.14%"
>>> meas_value("Cc1cc(C)c2[nH]c3nc(SCC(=O)Nc4ccc(Cl)cc4)nnc3c2c1")
"-17.9%"
>>> meas_value("COc1ccc2[nH]c3nc(SCC(=O)Nc4cccc(F)c4)nnc3c2c1")
"-13.9%"

Problem: Specify measured relative growth in counter assay for `Cc1nc(Nc2cccc(C3CCN(CC(=O)N4CCC(C)CC4)CC3)n2)sc1C` .
Solution: 26.6%

Problem: Check the records and state relative growth in counter assay for CCN1CC(C(=O)N2CCC(c3cccc(Nc4ncc(C)s4)n3)CC2)CC1=O (stereo unspecified)
Solution: -1.29%

Problem: Give the reported relative growth in counter assay for this molecule. `COc1ccccc1OCC(=O)Nc1ccc(S(=O)(=O)Nc2nc(C)cc(C)n2)cc1`
Solution: -7.04%

====

- Tested on: HEK293FT dCK*-only
- protocol summary: relative growth in counter assay (no AraC = 100%, AraC + DMSO = 0%); higher = more growth rescue independent of IKZF1
- experimental setup: compound concentration: 5 uM; AraC concentration: 0.3 uM; overnight pretreatment + 4 days AraC
The full ranking holds about 1,000 compounds; the median of “relative growth in counter assay (no AraC = 100%, AraC + DMSO = 0%)” is about -1.1, and the highest 2% start at about 20. Many of the other results were omitted from the sample, so the highest values are more common in it than they were.
// values below are reported relative growth in counter assay
Number in %, nothing else.

Sample answers from the record:
>>> meas_value("Cc1cccc(OCC(=O)Nc2ccc(S(=O)(=O)Nc3nc(C)cc(C)n3)cc2)c1")
-12
>>> meas_value("CCCCc1cnc(Nc2cccc(C3CCN(C(=O)C4(C)CCCN4C(=O)OC(C)(C)C)CC3)n2)s1 (stereo not given)")
5.27
>>> meas_value("CC(=O)N1CCC(Cc2cccc(Nc3nccs3)n2)CC1")
-8.99

Problem: Consider the compound Cc1csc(Nc2cccc(C3CN(C(=O)COc4c(C)cccc4C)CCO3)n2)n1 (stereo not given) . State its measured relative growth in counter assay.
Solution: 1.27

====

- Test system: HEK293FT dCK*-only
- protocol summary: relative growth in counter assay (no AraC = 100%, AraC + DMSO = 0%); higher = more growth rescue independent of IKZF1
- experimental setup: compound concentration: 5 uM; AraC concentration: 0.3 uM; overnight pretreatment + 4 days AraC
The full ranking holds about 1,000 compounds; the median of “relative growth in counter assay (no AraC = 100%, AraC + DMSO = 0%)” is about -1.1, and the highest 2% start at about 20. The entries come from a sample that favours the highest values as a whole.
property label: relative growth in counter assay (%)
Give the value, in units of %, as a plain number.

>>> meas_value("CC1(C)C=C(CC(=O)N2CCOC(c3cccc(Nc4nccs4)n3)C2)CC(C)(C)N1 (stereo not given)")
6.81
>>> meas_value("CC(=O)Nc1ccc(C(=O)Nc2ccc(S(=O)(=O)Nc3nccc(C)n3)cc2)cc1")
-3.58

Problem: Hello, please tell me recorded relative growth in counter assay for this one: `CCCCc1cnc(Nc2cccc(C3CCN(C(=O)C(C)(C)NC(=O)COC)CC3)n2)s1`
Solution: -10.6

Problem: Return the recorded relative growth in counter assay value; entry: `O=C(Nc1ccc(S(=O)(=O)Nc2ncccn2)cc1)c1ccc(Br)cc1`
Solution: 1.1

Problem: Please supply the value of reported relative growth in counter assay for the item `CC(C)(C)c1ccccc1OCC(=O)Nc1ccc(S(=O)(=O)Nc2ccccn2)cc1`
Solution: 4.41

====

Known relative growth in counter assay of a selection of molecules
- System: HEK293FT dCK*-only
- protocol summary: relative growth in counter assay (no AraC = 100%, AraC + DMSO = 0%); higher = more growth rescue independent of IKZF1
- experimental setup: compound concentration: 5 uM; AraC concentration: 0.3 uM; overnight pretreatment + 4 days AraC
Over roughly 1,000 compounds, “relative growth in counter assay (no AraC = 100%, AraC + DMSO = 0%)” has its median near -1.1; the highest 2% begin near 20. This is one part of a sample in which the highest values are shown more often than they occur.
Numeric answer only, unit % assumed.

The following molecules have reported results that may help.
>>> meas_value("Cc1cnc(Nc2cccc(C3CCN(CC(=O)N(C)C4CCCCC4)CC3)n2)s1")
-15.6
>>> meas_value("CC(=O)N1CCCC(c2csc(Nc3ccc(C)cn3)n2)C1 (stereo unspecified)")
2.06

Problem: Supply recorded relative growth in counter assay for `CC(=O)Nc1ccc(-c2csc(Nc3ccccn3)n2)cc1` here.
Solution: 15.7

Problem: Give the reported value of relative growth in counter assay for this record: `Cc1ccnc(Nc2nc(-c3sc(NC(=O)c4ccccc4)nc3C)cs2)c1`
Solution: 68.2

Problem: Quickly give me recorded relative growth in counter assay for Cc1cnc(Nc2cccc(C3CN(C(=O)CCOc4cccc(F)c4)CCO3)n2)s1 (stereo unspecified)
Solution: 19.7

Problem: Entry NC(=O)CN1CCCCC1c1csc(Nc2ccccn2)n1 (stereo unspecified) needs its relative growth in counter assay filled in; supply it.
Solution: 8.38

Problem: Report relative growth in counter assay for Cc1ccc(CC(=O)N2CCOC(c3cccc(Nc4nccs4)n3)C2)cc1C (stereo unspecified)
Solution: -4.97

====

- Tested on: HEK293FT dCK*-only
- protocol summary: relative growth in counter assay (no AraC = 100%, AraC + DMSO = 0%); higher = more growth rescue independent of IKZF1
- experimental setup: compound concentration: 5 uM; AraC concentration: 0.3 uM; overnight pretreatment + 4 days AraC
In all, about 1,000 compounds were measured (“relative growth in counter assay (no AraC = 100%, AraC + DMSO = 0%)”: median about -1.1, highest 2% from about 20 on). Shown is part of a subset that was picked to be rich in the highest values.
property label: relative growth in counter assay

>>> meas_value("COc1cc(NS(=O)(=O)c2ccc(Nc3nc(-c4c(C)nc5ncccn45)cs3)cc2)nc(OC)n1")
"2.39%"

Problem: Fill in: relative growth in counter assay on HEK293FT dCK*-only, entry CCCc1cnc(Nc2cccc(C3CN(C(=O)C4CCCCC4)CCO3)n2)s1 (stereo not given)
Solution: -12.3%

Problem: Param request: relative growth in counter assay | system HEK293FT dCK*-only | item COc1cc2c(cc1CCC(=O)N1CCCC1c1cccc(Nc3nccs3)n1)CCC2 (stereo not given)
Solution: -3.49%

====

- Tested on: HEK293FT dCK*-only
- protocol summary: relative growth in counter assay (no AraC = 100%, AraC + DMSO = 0%); higher = more growth rescue independent of IKZF1
- experimental setup: compound concentration: 5 uM; AraC concentration: 0.3 uM; overnight pretreatment + 4 days AraC
Whole data set: some 1,000 compounds, median “relative growth in counter assay (no AraC = 100%, AraC + DMSO = 0%)” near -1.1, cut for the highest 2% near 20. The sample as a whole holds a higher share of the highest values than the screen did.
property label: relative growth in counter assay (%)
Just the number in %, nothing appended.

>>> meas_value("Cc1csc(Nc2cccc(C3CCCN3C(=O)c3cn4cc(Cl)ccc4n3)n2)n1 (stereo not given)")
22.3
>>> meas_value("Cc1csc(Nc2cccc(C3CCCN3C(=O)c3ccc4[nH]c(C(C)C)nc4c3)n2)n1 (stereo not given)")
30.5
>>> meas_value("Cc1cc(C)nc(NS(=O)(=O)c2ccc(NC(=O)CSc3nc(C)cc(C)n3)cc2)n1")
-6.83
>>> meas_value("COc1ccc(CCC(=O)N2CCOC(c3cccc(Nc4ncc(C)s4)n3)C2)cc1 (stereo not given)")
9.66
>>> meas_value("CCCC(=O)Nc1ccc(S(=O)(=O)Nc2nc(C)cc(C)n2)cc1")
-9.14

Okay, now this compound:
Problem: Note down relative growth in counter assay recorded for CC(=O)N1CCCC1c1cccc(Nc2nc(C)cs2)n1 (stereo not given)
Solution: -5.77

====

- System: HEK293FT dCK*-only
- protocol summary: relative growth in counter assay (no AraC = 100%, AraC + DMSO = 0%); higher = more growth rescue independent of IKZF1
- experimental setup: compound concentration: 5 uM; AraC concentration: 0.3 uM; overnight pretreatment + 4 days AraC
In all, about 1,000 compounds were measured (“relative growth in counter assay (no AraC = 100%, AraC + DMSO = 0%)”: median about -1.1, highest 2% from about 20 on). What follows is part of a selection rich in the highest values, with near analogues and random picks from the rest.
property label: relative growth in counter assay (%)
The figure you give is taken to be in %; do not add the unit.

Examples with their reported relative growth in counter assay follow.
>>> meas_value("O=C(Nc1ccc(S(=O)(=O)Nc2ccccn2)cc1)c1cccc(Cl)c1")
-0.42
>>> meas_value("Cc1cnc(Nc2cccc(C3CCN(CC(=O)Nc4c(F)cccc4F)CC3)n2)s1")
-16.6
>>> meas_value("O=C(C1CCCCC1)N1CCOC(c2cccc(Nc3ncc(Cc4cccc(Cl)c4)s3)n2)C1 (stereo not given)")
13.1
>>> meas_value("CCCc1cnc(Nc2cccc(C3CCN(C(=O)C4CCCCN4CCO)CC3)n2)s1 (stereo not given)")
-7.08
>>> meas_value("O=C(Nc1ccc(S(=O)(=O)Nc2ncccn2)cc1)Oc1ccccc1")
-1.98

Problem: Please report relative growth in counter assay for the following molecule: `O=C(Nc1ccc(S(=O)(=O)Nc2ncccn2)cc1)c1ccccc1Br`
Solution: -0.83

Problem: Write down relative growth in counter assay measured for item CCCC(C)C(=O)Nc1ccc(S(=O)(=O)Nc2nccc(C)n2)cc1 (stereo not given)
Solution: -3.64

Problem: Specify relative growth in counter assay for COCC(C)NC(=O)CN1CCC(c2cccc(Nc3ncc(C)s3)n2)CC1 (stereo not given) and stop.
Solution: -1.08

Problem: Return reported relative growth in counter assay. Input molecule: Cc1cnc(Nc2cccc(C3CN(C(=O)C4CCCC(C)C4)CCO3)n2)s1 (stereo not given)
Solution: -12.6
